Species on record: Homo sapiens
Test: Inhibition of alpha-amylase (unknown origin) using starch as substrate preincubated for 10 mins followed by substrate addition and measured after 10 mins relative to control
Parameters: concentration or dose not given beside the values
Settings: time 20.0 min
value-type: inhibition (%)

# count of solved cases: 5
molecule: O=C(CN1C(=O)/C(=C/c2nccs2)SC1=S)Nc1ccc(C(F)(F)F)cc1
value-type: inhibition
measure-unit: %
meas-value: 34.8

molecule: O=C(CN1C(=O)/C(=C/c2nc3ccccc3s2)SC1=S)Nc1cccnn1
value-type: inhibition
measure-unit: %
meas-value: 37.4

molecule: O=C(CN1C(=O)/C(=C/c2csc3ccccc23)SC1=S)NC12CC3CC(CC(C3)C1)C2
value-type: inhibition
measure-unit: %
meas-value: 32.5

molecule: O=C(CN1C(=O)/C(=C/c2nc3ccccc3s2)SC1=S)Nc1ccc(Br)cc1F
value-type: inhibition
measure-unit: %
meas-value: 69.2

molecule: O=C(CN1C(=O)/C(=C/c2nc3ccccc3s2)SC1=S)Nc1ccc(C(F)(F)F)cc1
value-type: inhibition
measure-unit: %
meas-value: 61.7

[A] O=C(CN1C(=O)/C(=C/c2csc3ccccc23)SC1=S)Nc1cccnn1
[B] Cn1ccnc1/C=C1\SC(=S)N(CC(=O)Nc2ccc(C(F)(F)F)cc2)C1=O
[C] CC(C)CNC(=O)CN1C(=O)/C(=C/c2nccn2C)SC1=S
Thanks in advance: please rank these 3 entries by inhibition, highest to lowest. List the labels in the requested order.
B, A, C

[a] O=C(CN1C(=O)/C(=C/c2nccs2)SC1=S)NC12CC3CC(CC(C3)C1)C2
[b] O=C(CN1C(=O)/C(=C/c2nccs2)SC1=S)Nc1ccc(Br)cc1F
[c] O=C(CN1C(=O)/C(=C/c2nc3ccccc3s2)SC1=S)Nc1c(F)cc(Br)cc1Cl
[d] Cn1ccnc1/C=C1\SC(=S)N(CC(=O)Nc2ccc(Br)cc2F)C1=O
Order each entry by recorded inhibition, climbing from the minimum. List the labels in the requested order.
d, b, a, c
(d: 10.2%, b: 22.6%, a: 42.1%, c: 69.8%)

[A] CC(C)CNC(=O)CN1C(=O)/C(=C/c2nccs2)SC1=S
[B] Cn1ccnc1/C=C1\SC(=S)N(CC(=O)Nc2c(F)cc(F)cc2Br)C1=O
[C] O=C(CN1C(=O)/C(=C/c2csc3ccccc23)SC1=S)Nc1ccc(Br)cc1F
[D] O=C(CN1C(=O)/C(=C/c2nccs2)SC1=S)Nc1cccnn1
Order each entry by recorded inhibition, climbing from the minimum. List the labels in the requested order.
D, C, A, B

[1] O=C(CN1C(=O)/C(=C/c2nc3ccccc3s2)SC1=S)NC12CC3CC(CC(C3)C1)C2
[2] O=C(CN1C(=O)/C(=C/c2nccs2)SC1=S)Nc1c(F)cc(Br)cc1Cl
Of 1 and 2 , whose reported inhibition is the larger number? // caller expects the label of the chosen entry
2
(2: 47.1%, 1: 29.6%)
